# measured.target: T1, full-length cynomolgus monkey TIGIT on CHO-K1 cells (CHO-K1 cynomolgus monkey TIGIT) (cynomolgus monkey)
# T1 construct: NCBI XP_015300911.1; also called cynomolgus monkey TIGIT cells
# T1 sequence (chain, as listed by the source limits assumed): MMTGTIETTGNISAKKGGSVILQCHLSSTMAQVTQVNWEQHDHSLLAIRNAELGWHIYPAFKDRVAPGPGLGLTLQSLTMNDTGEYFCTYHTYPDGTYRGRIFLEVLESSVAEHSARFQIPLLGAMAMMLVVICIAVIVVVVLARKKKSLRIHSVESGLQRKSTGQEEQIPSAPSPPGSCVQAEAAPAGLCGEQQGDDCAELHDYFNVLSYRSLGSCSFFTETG
# test.description: cell ELISA
# Experimental: After discarding the culture supernatant, the cells were fixed with a cell fixation solution (Beyotime, CAT #P0098), 50 μL/well, at room temperature for 1 hour. […] 1M HCL, 50 μL/well, was then added into the plate to terminate the reaction, and the OD450 nm was read by a microplate reader (Biotek, Powerwave HT). […] (c) The effect of anti-TIGIT mouse monoclonal antibodies blocking the interaction between Bio-CD155-His and CHO-K1 human TIGIT detected by FACS
This section presents binders with their documented pEC50 values.
// pEC50 here means minus log10 of the molar concentration (mol/L)

TIGIT-F5-070 (antibody, V domains shown, mouse hybridoma antibody; variable domains as printed for TIGIT-CHI-070; tie rests on the number 070 only; also called mouse antibody TIGIT-070) VH: QVQLQQPGTELVKPGASVKLSCRASGYTFTNYYMHWVKQRPGRGLEWIGRIDPDSGGSKYNEKFKSKATLTVDKLSSTAYMQLSSLTSEDSAVYYCAREGHYGFYSDYWGQGTTLTVSS VL: DIQMTQSPASLSASVGETVTITCRVSENIYSYLAWYQQKQGKSPQLLVYNAKTLAEGVPSRFSGSGSGTQFSLKINSLQPEDFGNYYCQHHYGNPLTFGAGTKLDLK: 10.56
TIGIT-F2-002 (antibody, V domains shown, mouse hybridoma antibody; variable domains are those printed for the chimeric TIGIT-CHI-002 built from the mouse antibody; tie rests on the number 002 only; also called mouse antibody TIGIT-002) VH: EVQLQESGPGLAKPSQTLSLACSVTGYSITSDSWNWIRKFPGNKLEYMGYISYSGNTYYNPSLKSRISITRDTSKNQFYLQLNSVTTEDTATYYCARLDFSNYGGAVDYWGQGTSVTVSS VL: DIVMTQSHTFMSTSVGDRVSITCKASQNVRTAVAWYQQKPGQSPKLMIYSASYRYTGVPDRFTGSGSGTDFTFTISSVQAEDLAVYYCQQYYTTPWTFGGGAKLEIQ: 9.96
TIGIT-F2-006 (antibody, V domains shown, mouse hybridoma antibody; variable domains as printed for TIGIT-CHI-006; tie rests on the number 006 only; also called mouse antibody TIGIT-006) VH: EVQLQESGPGLAKPSQTPSLTCSVTGYSMTSDYWNWIRKFPGNKLEYMGYISYSGRTYYNPSLKSRISITRDTSKNQFYLQLNSVTTEDTATYYCARGDYSNYGGAMYDWGQGTSVTVSS VL: DIVMTQSHKFMSTSVGDRVSITCRASQGVSTTIAWYQQKPGQSPKLLIYSASYRYTGVPDRFTGSGSGTDFTFTISGVQAEDLAVYYCQQYYSSPFTFGGGTKLEIK: 10.21

With those in mind, consider the next binder.
Task: Name the reported pEC50 value associated with the binder TIGIT-F2-005 (antibody, V domains shown, mouse hybridoma antibody; variable domains as printed for TIGIT-CHI-005; tie rests on the number 005 only; also called mouse antibody TIGIT-005) VH: QVQLQQSGAELVRPGTSVKVSCKASGYAFTNYLIEWVKQRPGQGLEWIGVINPGSGGTNYKEKFKGKATLTADKSSSTAYMQLSSLTSEDSAVYFCARGEYFFFDYWGQGTTLTVSS VL: DIVMTQSHKFMSTSVGDRVSITCKASQHVSNGVAWYQHKPGQSPKLLIYSASYRYTGVPDRFTGTGSGTDFTFTISSVQAEDLAVYYCQQHYNTPHTFGGGTKLEIK
Output: 10.11
